tested on: OVCAR-5 ovarian; assay: NCI tumour cell line growth inhibition, 48 h
valueType: TGI

Query block: Specify reported TGI for the molecule shown: O=C1CCC(Cl)=CC2CCCN12 (stereo unspecified)
Result block: > 100 µM

====

test system: SNB-19 CNS; experiment: NCI tumour cell line growth inhibition, 48 h
valueType: TGI

Below, 4 compounds whose answers are already recorded.
>>> valuereported("CC(C)N(C(=O)C12C3C4C1C1C4(C#N)C3C12C#N)C(C)C (stereo not drawn)")
"> 100 µM"
>>> valuereported("CO/N=C(/C)c1cccc(Nc2cc(-n3nnc4ccccc43)nc3ccccc23)c1")
"> 100 µM"
>>> valuereported("NC(N)=NCCN1CC2CCC(CC2)C1")
"> 100 µM"
>>> valuereported("CC1(C)S[C@@H]2[C@H](NC(=O)C3(N)CCCCC3)C(=O)N2[C@H]1C(=O)O")
"> 100 µM"

Query block: Specify reported TGI for the compound shown: N#Cc1c(N)nc(N2CCOCC2)c(C#N)c1-c1ccncc1
Result block: > 100 µM

Query block: Specify reported TGI for the compound shown: Nc1ccc2c(c1)C(=O)N1CCC[C@H]1C(=O)N2
Result block: > 100 µM

Query block: Specify reported TGI for the compound shown: C=CCc1c(O)c2c(c3oc(=O)cc(C)c13)CC(C)O2 (stereo not drawn)
Result block: > 100 µM

Query block: Specify reported TGI for the compound shown: COc1cccc(F)c1C(=O)c1cnc(NC2CCN(S(C)(=O)=O)CC2)nc1N
Result block: > 25 µM

Query block: Specify reported TGI for the compound shown: CCOC(=O)NC(Nc1ccc(C)cc1)(C(F)(F)F)C(F)(F)F
Result block: > 100 µM

Query block: Specify reported TGI for the compound shown: C=CCCON(C(=O)OC(C)(C)C)C(C)(C)C
Result block: > 100 µM

Query block: Specify reported TGI for the compound shown: COc1cccc(C2c3cc4c(cc3OC(N3CCCCC3)C2C)OCO4)c1O (stereo not drawn)
Result block: > 100 µM

Query block: Specify reported TGI for the compound shown: CC1(C)C(C#N)C1C1=C(N2CCOCC2)[C@]2(C)C(OC(=O)c3ccccc3)CC[C@@H]2C1 (stereo partly drawn)
Result block: > 100 µM

Query block: Specify reported TGI for the compound shown: COC(=O)c1c(O)ccc2c1c1c(n2Cc2cc(OC)cc(OC)c2)C(=O)c2ccccc2C1
Result block: > 100 µM

====

system: SN12C renal; test: NCI tumour cell line growth inhibition, 48 h; in the data active = GI50 below about 0.43 µM; inactive = the rest
Tick one outcome: active, inactive

Study these solved cases before continuing.
>>> discretelabel("COc1cccc2c1C(=O)c1c(O)c3c(c(O)c1C2=O)C[C@@](O)(C(=O)CO)C[C@@H]3OC1CC(N)CC(C)O1 (some centres not stated)")
"active"
>>> discretelabel("Cn1cc(C2=C(c3ccc(N)cc3)C(=O)NC2=O)c2ccccc21")
"inactive"
>>> discretelabel("NC(=O)/C=C/C(=O)c1c(Cl)cccc1Cl")
"inactive"
>>> discretelabel("CCN(CC)CCC(CNc1ccnc2cc(Cl)ccc12)c1ccc(Cl)cc1 (configuration not stated)")
"inactive"
>>> discretelabel("COc1cc(Nc2ncccc2C(=O)NCc2cn(Cc3cccc(Oc4ccccc4)c3)nn2)cc(OC)c1")
"inactive"

Query block: Short answer needed: outcome of this test for COc1ccc(Sc2[nH]c(C(C)=O)c3ccccc23)cc1 ?
Result block: inactive

Query block: Short answer needed: outcome of this test for O=C(Nc1ccc(Br)cc1F)c1cc(F)ccc1O ?
Result block: active
